Listing of recorded Selectivity ratio by entry.
- Species: Rattus norvegicus
- measurementProtocol: Selectivity ratio for antagonist activity at alpha1D adrenergic receptor in Rattus norvegicus (rat) aorta to antagonist activity at alpha1A adrenergic receptor in vas deferens
Number, no unit, nothing else.

Solved entries:
smilesRecord	Selectivity ratio
COc1ccc(C(=O)N2CCN(c3nc(N)c4cc(OC)c(OC)cc4n3)[C@H]3CCCC[C@@H]32)o1	1.6
COc1cc2nc(N3CCN(C(=O)c4ccc(C(C)=O)o4)[C@H]4CCCC[C@@H]43)nc(N)c2cc1OC	0.2
COc1cc2nc(N3CCN(C(=O)c4ccc(Br)o4)[C@H]4CCCC[C@@H]43)nc(N)c2cc1OC	0.5

Please find the next compound below.
Qu. Give its Selectivity ratio value. Item: COc1cc2nc(N3CCN(C(=O)c4ccc(C)o4)[C@H]4CCCC[C@@H]43)nc(N)c2cc1OC
Ans. 2.3
